details: in n-propanol, 308.15 K
Measurement kind: solubility (mole fraction)
Form rule: numeric answer, no unit written next to it.

For the compound `O=[N+]([O-])c1cc(F)c(F)cc1[N+](=O)[O-]` , what solubility (mole fraction) is on record?
0.00012

* * *

settings: in benzene, 313.15 K
Measurement kind: solubility (mole fraction)
Form rule: numeric answer, no unit written next to it.

For the molecule `O=[N+]([O-])c1cc(F)c(F)cc1[N+](=O)[O-]` , what solubility (mole fraction) is on record?
0.00286

* * *

details: in ethyl acetate, 333.15 K
Measurement kind: solubility (mole fraction)
Form rule: numeric answer, no unit written next to it.

For the compound `O=[N+]([O-])c1cc(F)c(F)cc1[N+](=O)[O-]` , what solubility (mole fraction) is on record?
0.00951

* * *

details: in toluene, 298.15 K
Measurement kind: solubility (mole fraction)
Form rule: numeric answer, no unit written next to it.

For the molecule `O=[N+]([O-])c1cc(F)c(F)cc1[N+](=O)[O-]` , what solubility (mole fraction) is on record?
0.00154

* * *

conditions: in n-propanol, 318.15 K
Measurement kind: solubility (mole fraction)
Form rule: numeric answer, no unit written next to it.

For the molecule `O=[N+]([O-])c1cc(F)c(F)cc1[N+](=O)[O-]` , what solubility (mole fraction) is on record?
0.000278

* * *

details: in n-propanol, 303.15 K
Measurement kind: solubility (mole fraction)
Form rule: numeric answer, no unit written next to it.

For the compound `O=[N+]([O-])c1cc(F)c(F)cc1[N+](=O)[O-]` , what solubility (mole fraction) is on record?
8.5e-05

* * *

details: in n-propanol, 323.15 K
Measurement kind: solubility (mole fraction)
Form rule: numeric answer, no unit written next to it.

For the compound `O=[N+]([O-])c1cc(F)c(F)cc1[N+](=O)[O-]` , what solubility (mole fraction) is on record?
0.000413

* * *

details: in benzene, 328.15 K
Measurement kind: solubility (mole fraction)

For the compound `O=[N+]([O-])c1cc(F)c(F)cc1[N+](=O)[O-]` , what solubility (mole fraction) is on record?
0.00647

* * *

conditions: in 1,2-dichloroethane, 323.15 K
Measurement kind: solubility (mole fraction)

For the molecule `O=[N+]([O-])c1cc(F)c(F)cc1[N+](=O)[O-]` , what solubility (mole fraction) is on record?
0.00416

* * *

conditions: in m-xylene, 313.15 K
Measurement kind: solubility (mole fraction)

For the compound `O=[N+]([O-])c1cc(F)c(F)cc1[N+](=O)[O-]` , what solubility (mole fraction) is on record?
0.00368

* * *

details: in toluene, 333.15 K
Measurement kind: solubility (mole fraction)
Form rule: numeric answer, no unit written next to it.

For the compound `O=[N+]([O-])c1cc(F)c(F)cc1[N+](=O)[O-]` , what solubility (mole fraction) is on record?
0.00781

* * *

details: in o-xylene, 303.15 K
Measurement kind: solubility (mole fraction)
Form rule: numeric answer, no unit written next to it.

For the molecule `O=[N+]([O-])c1cc(F)c(F)cc1[N+](=O)[O-]` , what solubility (mole fraction) is on record?
0.00277

* * *

conditions: in tetrachloromethane, 328.15 K
Measurement kind: solubility (mole fraction)
Form rule: numeric answer, no unit written next to it.

For the compound `O=[N+]([O-])c1cc(F)c(F)cc1[N+](=O)[O-]` , what solubility (mole fraction) is on record?
0.000614

* * *

settings: in mesitylene, 313.15 K
Measurement kind: solubility (mole fraction)
Form rule: numeric answer, no unit written next to it.

For the molecule `O=[N+]([O-])c1cc(F)c(F)cc1[N+](=O)[O-]` , what solubility (mole fraction) is on record?
0.00348

* * *

conditions: in ethyl formate, 333.15 K
Measurement kind: solubility (mole fraction)

For the molecule `O=[N+]([O-])c1cc(F)c(F)cc1[N+](=O)[O-]` , what solubility (mole fraction) is on record?
0.01

* * *

details: in n-butanol, 308.15 K
Measurement kind: solubility (mole fraction)
Form rule: numeric answer, no unit written next to it.

For the compound `O=[N+]([O-])c1cc(F)c(F)cc1[N+](=O)[O-]` , what solubility (mole fraction) is on record?
0.000142

* * *

conditions: in o-xylene, 328.15 K
Measurement kind: solubility (mole fraction)
Form rule: numeric answer, no unit written next to it.

For the compound `O=[N+]([O-])c1cc(F)c(F)cc1[N+](=O)[O-]` , what solubility (mole fraction) is on record?
0.00598

* * *

settings: in ethanol, 303.15 K
Measurement kind: solubility (mole fraction)

For the compound `O=[N+]([O-])c1cc(F)c(F)cc1[N+](=O)[O-]` , what solubility (mole fraction) is on record?
0.000166

* * *

conditions: in mesitylene, 318.15 K
Measurement kind: solubility (mole fraction)
Form rule: numeric answer, no unit written next to it.

For the compound `O=[N+]([O-])c1cc(F)c(F)cc1[N+](=O)[O-]` , what solubility (mole fraction) is on record?
0.00397

* * *

settings: in benzene, 308.15 K
Measurement kind: solubility (mole fraction)

For the molecule `O=[N+]([O-])c1cc(F)c(F)cc1[N+](=O)[O-]` , what solubility (mole fraction) is on record?
0.00216

* * *

conditions: in m-xylene, 328.15 K
Measurement kind: solubility (mole fraction)
Form rule: numeric answer, no unit written next to it.

For the compound `O=[N+]([O-])c1cc(F)c(F)cc1[N+](=O)[O-]` , what solubility (mole fraction) is on record?
0.0062

* * *

conditions: in n-butanol, 328.15 K
Measurement kind: solubility (mole fraction)
Form rule: numeric answer, no unit written next to it.

For the compound `O=[N+]([O-])c1cc(F)c(F)cc1[N+](=O)[O-]` , what solubility (mole fraction) is on record?
0.000546

* * *

details: in n-butanol, 318.15 K
Measurement kind: solubility (mole fraction)
Form rule: numeric answer, no unit written next to it.

For the compound `O=[N+]([O-])c1cc(F)c(F)cc1[N+](=O)[O-]` , what solubility (mole fraction) is on record?
0.000278

* * *

conditions: in isopropanol, 303.15 K
Measurement kind: solubility (mole fraction)
Form rule: numeric answer, no unit written next to it.

For the compound `O=[N+]([O-])c1cc(F)c(F)cc1[N+](=O)[O-]` , what solubility (mole fraction) is on record?
6.4e-05

* * *

conditions: in chloroform, 298.15 K
Measurement kind: solubility (mole fraction)

For the compound `O=[N+]([O-])c1cc(F)c(F)cc1[N+](=O)[O-]` , what solubility (mole fraction) is on record?
0.000957

* * *

conditions: in isopropanol, 308.15 K
Measurement kind: solubility (mole fraction)
Form rule: numeric answer, no unit written next to it.

For the compound `O=[N+]([O-])c1cc(F)c(F)cc1[N+](=O)[O-]` , what solubility (mole fraction) is on record?
8.9e-05

* * *

conditions: in n-butanol, 293.15 K
Measurement kind: solubility (mole fraction)
Form rule: numeric answer, no unit written next to it.

For the compound `O=[N+]([O-])c1cc(F)c(F)cc1[N+](=O)[O-]` , what solubility (mole fraction) is on record?
3.8e-05

* * *

conditions: in chloroform, 303.15 K
Measurement kind: solubility (mole fraction)

For the compound `O=[N+]([O-])c1cc(F)c(F)cc1[N+](=O)[O-]` , what solubility (mole fraction) is on record?
0.00111

* * *

details: in chloroform, 323.15 K
Measurement kind: solubility (mole fraction)

For the compound `O=[N+]([O-])c1cc(F)c(F)cc1[N+](=O)[O-]` , what solubility (mole fraction) is on record?
0.00456

* * *

details: in ethyl acetate, 323.15 K
Measurement kind: solubility (mole fraction)
Form rule: numeric answer, no unit written next to it.

For the molecule `O=[N+]([O-])c1cc(F)c(F)cc1[N+](=O)[O-]` , what solubility (mole fraction) is on record?
0.00554

* * *

conditions: in methanol, 328.15 K
Measurement kind: solubility (mole fraction)
Form rule: numeric answer, no unit written next to it.

For the compound `O=[N+]([O-])c1cc(F)c(F)cc1[N+](=O)[O-]` , what solubility (mole fraction) is on record?
0.000956

* * *

details: in benzene, 318.15 K
Measurement kind: solubility (mole fraction)

For the compound `O=[N+]([O-])c1cc(F)c(F)cc1[N+](=O)[O-]` , what solubility (mole fraction) is on record?
0.00384

* * *

settings: in methanol, 308.15 K
Measurement kind: solubility (mole fraction)
Form rule: numeric answer, no unit written next to it.

For the molecule `O=[N+]([O-])c1cc(F)c(F)cc1[N+](=O)[O-]` , what solubility (mole fraction) is on record?
0.000401
